# study-target: Cathepsin E (Homo sapiens, UniProt P14091)
# Sequence (P14091 whole entry): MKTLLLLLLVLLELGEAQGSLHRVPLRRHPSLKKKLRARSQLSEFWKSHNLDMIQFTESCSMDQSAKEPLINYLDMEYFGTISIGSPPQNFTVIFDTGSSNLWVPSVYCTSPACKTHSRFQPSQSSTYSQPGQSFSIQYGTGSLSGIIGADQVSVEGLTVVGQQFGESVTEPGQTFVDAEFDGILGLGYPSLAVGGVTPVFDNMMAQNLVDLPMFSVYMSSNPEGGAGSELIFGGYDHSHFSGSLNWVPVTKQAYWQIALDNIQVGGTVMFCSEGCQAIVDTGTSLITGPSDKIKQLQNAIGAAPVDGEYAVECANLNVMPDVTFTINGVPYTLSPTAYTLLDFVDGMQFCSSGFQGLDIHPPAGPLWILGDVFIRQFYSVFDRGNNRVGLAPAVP
Starred links: 1 amine or outer side, 2 acyl side, 3 side chain; linkers in the order of their positions; H or OH if unused. Non-standard residues stand in square brackets, D forms with d. Residues, ends and D or L forms follow the SMILES beside them. *: point of attachment. Ahppa(3S,4S) = O=C(C[C@H](O)[C@H](Cc1ccccc1)N[*:1])[*:2]; dNMeF = CN[C@H](Cc1ccccc1)C(=O)O; NMeQ = CN[C@@H](CCC(N)=O)C(=O)O; Cbz = O=C(OCc1ccccc1)*; Lac = C[C@H](O)C(=O)O
Lab note: anything with IC50 below 30 nM is marked 1.0; values at 30 nM or higher are marked 0.0.

Determine whether this molecule shows IC50 lower than 30 nM (ties excluded): COC(=O)[C@@H]1CCCN1C(=O)[C@@H](Cc1ccccc1)N(C)C(=O)[C@H](C)NC(=O)[C@H](CC(C)C)NC(=O)C[C@H](O)[C@H](Cc1ccccc1)NC(=O)[C@H](CCC(N)=O)N(C)C(=O)[C@@H](NC(=O)OCc1ccccc1)C(C)C (Cbz-V[NMeQ][Ahppa(3S,4S)]LA[dNMeF]P-OMe)
1.0

Determine whether this molecule shows IC50 lower than 30 nM (ties excluded): CC(C)C[C@H](NC(=O)C[C@H](O)[C@H](Cc1ccccc1)NC(=O)[C@H](CCC(N)=O)N(C)C(=O)[C@@H](NC(=O)[C@H](C)O)C(C)C)C(=O)N[C@@H](C)C(=O)N(C)[C@H](Cc1ccccc1)C(=O)O (H-[Lac]V[NMeQ][Ahppa(3S,4S)]LA[dNMeF]-OH)
1.0

Determine whether this molecule shows IC50 lower than 30 nM (ties excluded): COC(=O)[C@@H]1CCCN1C(=O)[C@@H](Cc1ccccc1)N(C)C(=O)[C@H](C)NC(=O)[C@H](CC(C)C)NC(=O)C[C@H](O)[C@H](Cc1ccccc1)NC(=O)[C@H](CCC(N)=O)N(C)C(=O)[C@@H](NC(=O)OC(C)(C)C)C(C)C
1.0

Determine whether this molecule shows IC50 lower than 30 nM (ties excluded): COC(=O)[C@@H]1CCCN1C(=O)[C@@H](Cc1ccccc1)N(C)C(=O)[C@@H](C)NC(=O)[C@H](CC(C)C)NC(=O)C[C@H](O)[C@H](Cc1ccccc1)NC(=O)[C@H](CCC(N)=O)N(C)C(=O)[C@@H](NC(=O)[C@H](C)O)C(C)C
0.0

Determine whether this molecule shows IC50 lower than 30 nM (ties excluded): COC(=O)[C@@H]1CCCN1C(=O)[C@@H](Cc1ccccc1)N(C)C(=O)[C@H](C)NC(=O)[C@H](CC(C)C)NC(=O)C[C@H](O)[C@H](Cc1ccccc1)NC(C)=O
0.0

Determine whether this molecule shows IC50 lower than 30 nM (ties excluded): CC(C)C[C@H](NC(=O)C[C@H](O)[C@H](Cc1ccccc1)NC(=O)[C@H](CCC(N)=O)N(C)C(=O)[C@@H](NC(=O)[C@H](C)O)C(C)C)C(=O)N[C@@H](C)C(=O)N(C)[C@H](Cc1ccccc1)C(=O)NC(C)C
0.0

Determine whether this molecule shows IC50 lower than 30 nM (ties excluded): COC(=O)[C@@H]1CCCN1C(=O)[C@@H](Cc1ccccc1)N(C)C(=O)[C@H](C)NC(=O)[C@H](CC(C)C)NC(=O)C[C@H](O)[C@H](Cc1ccccc1)NC(=O)[C@H](CCC(N)=O)N(C)C(=O)[C@@H](NC(=O)[C@H](C)O)C(C)C [TASIAMIDE B]
0.0

Determine whether this molecule shows IC50 lower than 30 nM (ties excluded): COC(=O)[C@@H]1CCCN1C(=O)[C@@H](Cc1ccccc1)N(C)C(=O)[C@H](C)NC(=O)[C@H](CC(C)C)NC(=O)C[C@H](O)[C@H](Cc1ccccc1)NC(=O)[C@H](CCC(N)=O)N(C)C(=O)[C@@H](N)C(C)C
0.0
